These measurements were taken from ChEMBL document CHEMBL4251633.

Test system: MDA-MB-231
experimentDescription: Antiproliferative activity against human MDA-MB-231 cells after 48 hrs by MTT assay
Type: functional, cell-based
measurementSetup: MDA-MB-231, 48 h
pIC50: −log10 of the molar value.
measurementName: pIC50

Below: 5 compounds and their reported pIC50.
{"sampleSmiles": "C=C1C(=O)N(c2cc(OC)c(OC)c(OC)c2)[C@H]1c1ccc(OC)c(OCCC)c1", "pIC50": 5.25}
{"sampleSmiles": "C=C1C(=O)N(c2cc(OC)c(OC)c(OC)c2)[C@H]1c1ccc(C)cc1", "pIC50": 6.71}
{"sampleSmiles": "C=CC(=O)Nc1cc([C@H]2C(=C)C(=O)N2c2cc(OC)c(OC)c(OC)c2)ccc1OC", "pIC50": 7.47}
{"sampleSmiles": "COc1ccc([C@H]2/C(=C/c3ccccc3)C(=O)N2c2cc(OC)c(OC)c(OC)c2)cc1O", "pIC50": 5.50}
{"sampleSmiles": "C=C1C(=O)N(c2cc(OC)c(OC)c(OC)c2)[C@H]1c1ccc(OC)c(N)c1", "pIC50": 7.40}

P = COc1ccc([C@@H]2[C@H](C)C(=O)N2c2cc(OC)c(OC)c(OC)c2)cc1O
Q = C=C1C(=O)N(c2cc(OC)c(OC)c(OC)c2)[C@H]1c1cc(OC)c(OC)c(OC)c1
Problem: Select the item whose pIC50 value is smaller, choosing between P and Q . Reply with the label of the item you choose.
Solution: P
(P: 5.29, Q: 6.11)

---

experimentDescription: Acute toxicity in ICR mouse assessed as survival rate at 35 mg/kg, ip measured on day 14 (reference value: 100%)
Format: organism-based
measurementSetup: in vivo
measurementName: survival at 14 day (%)
Use % as the unit, but write only the number.

Problem: Name the reported survival at 14 day value associated with the molecule COc1ccc([C@H]2[C@H](CO)C(=O)N2c2cc(OC)c(OC)c(OC)c2)cc1O
Solution: 90

---

We begin with a simple list: items and their reported inhibition at 48 h, 1 µM.
experimentDescription: Growth inhibition of HOSEC at 1 uM after 48 hrs by MTT assay relative to control
measurementSetup: human, HOSEC cells; read-out: GI

{"sampleSmiles": "COc1ccc([C@H]2[C@H](C)C(=O)N2c2cc(OC)c(OC)c(OC)c2)cc1O", "inhibition at 48 h, 1 µM": "< 50%"}

From here, focus on the item given below.
Problem: GET /values?readout=inhibition at 48 h, 1 µM&item= COc1ccc([C@H]2[C@H](CO)C(=O)N2c2cc(OC)c(OC)c(OC)c2)cc1O
Solution: < 50%

---

Test system: MDA-MB-231
experimentDescription: Antiproliferative activity against human MDA-MB-231 cells after 48 hrs by MTT assay
Format: functional, cell-based
measurementSetup: MDA-MB-231, 48 h
measurementName: IC50 (nM)

{"sampleSmiles": "COc1ccc([C@H]2[C@H](C)C(=O)N2c2cc(OC)c(OC)c(OC)c2)cc1N", "targetOfAssay": "MDA-MB-231", "valueMeasured": 17}
{"sampleSmiles": "COc1ccc([C@@H]2N(c3cc(OC)c(OC)c(OC)c3)C(=O)[C@]2(O)CO)cc1O", "targetOfAssay": "MDA-MB-231", "valueMeasured": 2320}

a = COc1ccc([C@H]2[C@H](NC(=O)c3ccccc3)C(=O)N2c2cc(OC)c(OC)c(OC)c2)cc1O
b = C=C1C(=O)N(c2cc(OC)c(OC)c(OC)c2)[C@H]1c1ccc(OC)c(OC(C)C)c1
c = COc1ccc([C@H]2[C@@H](CO)C(=O)N2c2cc(OC)c(OC)c(OC)c2)cc1N
Problem: Order the items by recorded IC50; the first position goes to the largest value. Labels, ranked as asked.
Solution: b, c, a

A = COc1ccc([C@@H]2[C@@H](C)C(=O)N2c2cc(OC)c(OC)c(OC)c2)cc1O
B = C=C1C(=O)N(c2cc(OC)c(OC)c(OC)c2)[C@H]1c1ccc(OC)c(O[Si](C)(C)C(C)(C)C)c1
Problem: // pick larger IC50 from pair: A vs B Lab log: write the label of the selected item as the result.
Solution: A
(A: 1080 nM, B: 560 nM)

I = C=C1C(=O)N(c2cc(OC)c(OC)c(OC)c2)[C@H]1c1ccc(OC)c(OC(C)=O)c1
II = C=C1C(=O)N(c2cc(OC)c(OC)c(OC)c2)[C@H]1c1cccc(O)c1
III = C=C1C(=O)N(c2cccc(OC)c2)[C@H]1c1ccc(OC)c(O)c1
Problem: Ascending by IC50, please. # the answer lists labels in the order requested
Solution: I, III, II
(I: 133 nM, III: 1370 nM, II: 6640 nM)

P = COc1ccc([C@H]2[C@@H](OC)C(=O)N2c2cc(OC)c(OC)c(OC)c2)cc1O
Q = COc1ccc([C@H]2[C@H](NS(C)(=O)=O)C(=O)N2c2cc(OC)c(OC)c(OC)c2)cc1O
Problem: Consider P and Q . Which of these has its IC50 at a higher number? Let me know the label of the one you choose.
Solution: P
(P: 1960 nM, Q: 254 nM)

---

experimentDescription: Acute toxicity in ICR mouse assessed as death administered ip measured up to 14 days
Type: organism-based
measurementSetup: in vivo
measurementName: LD50 at 336 h (mg/kg)
Please give a number only; it is taken to be in mg/kg.

Problem: Using the record for COc1ccc([C@H]2[C@H](C)C(=O)N2c2cc(OC)c(OC)c(OC)c2)cc1O , report its LD50 at 336 h.
Solution: 136

---

Listed below: IC50 values for each entry.
Tested on: MDA-MB-231
experimentDescription: Antiproliferative activity against human MDA-MB-231 cells after 48 hrs by MTT assay
Type: functional, cell-based
measurementSetup: MDA-MB-231, 48 h
Please respond with the number in nM and leave the unit unwritten.

Completed entries (count: 3):
{"sampleSmiles": "COc1ccc([C@H]2[C@@H](C)C(=O)N2c2cc(OC)c(OC)c(OC)c2)cc1N", "IC50, nM": 63}
{"sampleSmiles": "C=C1C(=O)N(c2cc(OC)c(OC)c(OC)c2)[C@H]1c1ccc(OC)c(OC)c1", "IC50, nM": 1020}
{"sampleSmiles": "COc1ccc([C@H]2[C@@H](OC(=O)CCC(=O)O)C(=O)N2c2cc(OC)c(OC)c(OC)c2)cc1O", "IC50, nM": 102}

Now examine the next entry.
Problem: Suppose we examine the molecule C=C1C(=O)N(c2cc(OC)c(OC)c(OC)c2)[C@H]1c1ccc(OC)c(Cl)c1 ; what IC50 value has been reported?
Solution: 512

---

Test system: MDA-MB-231
experimentDescription: Antiproliferative activity against human MDA-MB-231 cells after 48 hrs by MTT assay
Assay type: functional, cell-based
measurementSetup: MDA-MB-231, 48 h
Item-by-item account of IC50

{"sampleSmiles": "C=C1C(=O)N(c2cc(OC)c(OC)c(OC)c2)[C@H]1c1ccc(OC)c(OCc2ccccc2)c1", "IC50": "> 20 µM"}

Problem: Item C=C1C(=O)N(c2ccc(OC)cc2)[C@H]1c1ccc(OC)c(O)c1 has what recorded IC50?
Solution: > 20 µM

Problem: I am curious: what IC50 value has been reported for COC[C@@]1(OC)C(=O)N(c2cc(OC)c(OC)c(OC)c2)[C@H]1c1ccc(OC)c(O)c1 ?
Solution: > 20 µM
